Data origin, for the record: BindingDB's records for doi:10.7270/Q2D798VP

# pEC50 per record follows
Target: Zinc finger protein mex-5 (Caenorhabditis elegans)
Sequence (Q9XUB2 whole entry): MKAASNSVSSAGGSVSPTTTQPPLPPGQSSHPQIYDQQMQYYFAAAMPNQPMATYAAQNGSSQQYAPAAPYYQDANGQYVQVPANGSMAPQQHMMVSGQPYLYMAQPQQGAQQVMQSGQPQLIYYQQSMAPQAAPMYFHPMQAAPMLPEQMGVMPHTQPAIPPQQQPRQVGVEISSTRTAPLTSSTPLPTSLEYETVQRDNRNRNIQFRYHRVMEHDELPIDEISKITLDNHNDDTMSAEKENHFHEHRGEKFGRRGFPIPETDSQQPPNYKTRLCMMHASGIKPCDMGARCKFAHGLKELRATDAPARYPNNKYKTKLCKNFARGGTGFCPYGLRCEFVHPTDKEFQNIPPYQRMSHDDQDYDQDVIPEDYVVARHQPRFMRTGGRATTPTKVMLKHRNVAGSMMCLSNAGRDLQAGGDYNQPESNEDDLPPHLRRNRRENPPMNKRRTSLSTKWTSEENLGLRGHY
Assay: MEX-5/TCR-2 RNA interaction inhibitors, dose response, biochemical, C. elegans, fluorescence polarization (AID 1960)
pEC50: −log10 of the molar value.

// pEC50 (Zinc finger protein mex-5 (Caenorhabditis elegans)) for "Cc1ccccc1NN=C1C(=O)N(C)c2ccccc21" = < 3.52

Lab entry: Zinc finger protein mex-5 (Caenorhabditis elegans) assay, compound "O=c1c2ccccc2nc(N=NCc2ccc(O)cc2)n1O" , pEC50 = < 3.52

Record for "Cc1ccc2c(c1)=C(NNc1ccccc1C)C(=O)N=2" under target or system Zinc finger protein mex-5 (Caenorhabditis elegans): pEC50 reported as < 3.52

---
Form field, pEC50 with Zinc finger protein mex-5 (Caenorhabditis elegans), item "CC1=C(C#N)C(=O)N(C)C(=O)C1=CN" : < 3.52

Reading of pEC50 for "COc1ccc(CCN2C(=O)NC(=O)C(=CNc3ccc(NC(C)=O)cc3)C2=O)cc1OC" with Zinc finger protein mex-5 (Caenorhabditis elegans): < 3.52

Entry c1ccc(C2=Nc3nnnn3C(c3cccs3)C2)cc1 (stereo not given) ; assay system Zinc finger protein mex-5 (Caenorhabditis elegans); pEC50 recorded at < 3.52

Case COc1ccc(C2C3=C(CC(C)(C)CC3=O)OC(=N)C2C#N)cc1OC (stereo not given) , Zinc finger protein mex-5 (Caenorhabditis elegans), pEC50 recorded as < 3.52

Summary line: Cc1ccc(N=CC2Sc3ccccc3NC2=O)cc1 (stereo not given) , Zinc finger protein mex-5 (Caenorhabditis elegans), reported pEC50 = < 3.52

With Zinc finger protein mex-5 (Caenorhabditis elegans) as the test system, N#CC1C(=N)OC2=C(C(=O)CCC2)C1c1cc2c(cc1Cl)OCO2 (stereo not given) showed pEC50 of < 3.52

COc1cccc(C2C(C(=O)c3cc4cccc(OC)c4o3)C(=O)C(=O)N2c2cc(C)on2)c1OC (stereo not given) on Zinc finger protein mex-5 (Caenorhabditis elegans) gives pEC50 = < 3.52

###

molecular target: Zinc finger protein mex-5 (Caenorhabditis elegans); test: MEX-5/TCR-2 RNA interaction inhibitors, dose response, biochemical, C. elegans, fluorescence polarization (AID 1960)
pEC50: −log10 of the molar value.
List of pEC50 values.

The value of pEC50 recorded for "CC(=O)Nc1ccc(N=CCC(=O)c2ccc(C)o2)cc1" when tested on Zinc finger protein mex-5 (Caenorhabditis elegans) reads < 3.52

For CC1(C)CC(=O)C2=C(C1)OC(=N)C(C#N)C2c1ccccc1OC(=O)N1CCOCC1 (stereo not drawn) on Zinc finger protein mex-5 (Caenorhabditis elegans), measured pEC50 was < 3.52

Please turn your attention to the following entry.
Test item O=C1C(=Nc2ccccc2O)C(Cl)C(=O)N1c1ccccc1 (stereo not drawn) ; Zinc finger protein mex-5 (Caenorhabditis elegans); reported pEC50 was 4.14
